In this section we review reported melting point values for a set of compounds.
value_type: melting point

compound	observed_value
CC(C)(C)n1cnc(N)n1	135 to 137 °C
Cc1ccccc1/C=C/c1cc(C(=O)O)c2cc(Br)ccc2n1	289 to 291 °C
Cn1cnnc1-c1cncc(O)c1	266 to 268 °C
CCOC(=O)/C(C#N)=C\Nc1ccc(F)c(F)c1F	142 to 144 °C
Cc1ccsc1-c1nsc(N)n1	165 to 167 °C
O=C(O)c1cccc(S)c1	144 to 147 °C
O=S(=O)(Cl)c1ccc(N2CCCS2(=O)=O)cc1	184 to 186 °C
CN(C)S(=O)(=O)c1ccc(Cl)c([N+](=O)[O-])c1	104 to 106 °C
CCCOc1ccc(C(F)(F)F)cc1NC(=O)CCl	73 to 75 °C
CC(C)(N)CCS(C)(=O)=O	41 to 43 °C
Cc1cc(C)cc(CCC(=O)O)c1	49 to 51 °C
CC(C)C(=O)Nc1cccc(N)c1	119 to 121 °C
Nc1cc(S(=O)(=O)NC2CC2)c(Cl)cc1F	120 to 122 °C
Cc1ccccc1C1CNC(=O)C1 (configuration not stated)	115 to 117 °C
O=C1CCCc2nc(-c3ccc(F)cc3)sc21	142 to 144 °C
Cc1csc(NC(=O)Cc2ccc(N)cc2)n1	143 to 145 °C
CCc1ccccc1Nc1nc(N)nc(CCl)n1	146 to 149 °C
CCOC(=O)c1cnc(O)nc1C	179 to 181 °C
CN(CC#N)C(=O)c1ccccc1	73 to 75 °C
Cc1ccccc1-n1c(S)nnc1-c1cccnc1	94 to 96 °C
Cc1ccc(Cl)c(S(=O)(=O)Cl)c1	49 to 51 °C
CNc1ccc(Br)cn1	69 to 71 °C
